test system: Saccharomyces cerevisiae BY4741 SeMeCo community; experiment: z-score of subpopulation abundance vs DMSO median, subpopulation auxotrophic for H; higher = larger share of this subpopulation than in DMSO controls; conditions: 10 µM; 24 h; SM minimal medium; subpopulation (auxotrophy): H
Where a name gives a salt, the structure may show the parent alone.
Could you please classify the records by z-score of subpopulation abundance using these ranges: Low = under -0.4, Mid = from -0.4 up to 0.2, High = 0.2 and over

Bin this entry: `Cc1nc(C)c(Cl)c(O)c1Cl`
High

Bin this entry: `COc1ccc2cc(C(=O)O)ccc2c1`
High

Bin this entry: CN(C)CCC=C1c2ccccc2C=Cc2ccccc21 [Cyclobenzaprine HCl]
Low

Bin this entry: `c1ccc2[nH]c(-c3cscn3)nc2c1`
Low

Bin this entry: `CN(CCN1CCC(OC(=O)Nc2ccccc2-c2ccccc2)CC1)C(=O)c1ccc(CN2CCC(C(N)=O)CC2)cc1`
Low

Bin this entry: COC1C(O)CC(=O)OC(C)CC=CC=CC(OC2CCC(N(C)C)C(C)O2)C(C)CC(CC=O)C1OC1OC(C)C(OC2CC(C)(O)C(O)C(C)O2)C(N(C)C)C1O (configuration not stated)
Mid

Bin this entry: CC(=O)N1CCN(c2ccc(OCC3COC(Cn4ccnc4)(c4ccc(Cl)cc4Cl)O3)cc2)CC1 (configuration not stated)
Mid

Bin this entry: Nc1ccc2cc3ccc(N)cc3nc2c1 [Proflavine]
High

Bin this entry: COC(=O)C1=C(C)NC(C)=C(C(=O)OCC(C)C)C1c1ccccc1[N+](=O)[O-] (configuration not stated)
High

Bin this entry: `Cc1nnc(NS(=O)(=O)c2ccc(N)cc2)s1`
Low

Bin this entry: C[C@]12CC[C@@H]3c4ccc(OS(=O)(=O)O)cc4CC[C@H]3[C@@H]1CCC2=O [Estropipate]
Low

Bin this entry: `O=C(O)CCNC(=O)c1ccccc1`
Mid

Bin this entry: `C#C[C@]1(O)CC[C@H]2[C@@H]3CCC4=CCCC[C@@H]4[C@H]3CC[C@@]21C`
Mid

Bin this entry: `CC[C@H]1OC(=O)[C@H](C)[C@@H](O[C@H]2C[C@@](C)(OC)[C@@H](O)[C@H](C)O2)[C@H](C)[C@@H](O[C@@H]2O[C@H](C)C[C@H](N(C)C)[C@H]2O)[C@](C)(O)C[C@@H](C)[C@@H]2N[C@@H](COCCOC)O[C@H]([C@H]2C)[C@]1(C)O`
Mid

Bin this entry: `Cc1nc2n(c(=O)c1CCN1CCC(c3noc4cc(F)ccc34)CC1)CCCC2`
High

Bin this entry: N=C(N)NC(=O)c1nc(Cl)c(N)nc1N [Amiloride HCl dihydrate]
High

Bin this entry: CCOc1ccc2nc3cc(N)ccc3c(N)c2c1 [Ethacridine lactate monohydrate]
High

Bin this entry: N[C@@H](CCC(=O)O)C(=O)O [(S)-Glutamic acid]
Mid

Bin this entry: C[C@]12CC[C@@H]3c4ccc(O)cc4CC[C@H]3[C@@H]1CC[C@@H]2OC(=O)CCC1CCCC1 [Estradiol Cypionate]
Mid

Bin this entry: CCOC(=O)c1c(CSc2ccccc2)n(C)c2cc(Br)c(O)c(CN(C)C)c12 [Arbidol HCl]
Mid

Bin this entry: CCN(CC)CCNC(=O)c1cc(Cl)c(N)cc1OC [Metoclopramide]
Low

Bin this entry: Cc1nc2n(c(=O)c1CCN1CCC(c3noc4cc(F)ccc34)CC1)CCCC2O (configuration not stated)
Low

Bin this entry: `CS(=O)(=O)c1ccc([C@@H](O)[C@@H](CO)NC(=O)C(Cl)Cl)cc1`
Mid

Bin this entry: c1cnc2cc3c(cc2n1)[C@@H]1CNC[C@H]3C1 [Varenicline Tartrate]
High

Bin this entry: CC1=Nc2ccc(Cl)cc2S(=O)(=O)N1 [Diazoxide]
Low

Bin this entry: `COc1cc2c(cc1OC)[C@@H]1Cc3ccc(OC)c(OC)c3CN1CC2`
Mid

Bin this entry: Cc1c(C)c2c(c(C)c1O)CCC(C)(CCCC(C)CCCC(C)CCCC(C)C)O2 (configuration not stated)
Low

Bin this entry: Clc1ccc(COC(Cn2ccnc2)c2ccc(Cl)cc2Cl)c(Cl)c1 (configuration not stated) [Miconazole]
High

Bin this entry: NCC[C@H](O)C(=O)N[C@@H]1C[C@H](N)[C@@H](O[C@H]2O[C@H](CN)[C@@H](O)[C@H](O)[C@H]2O)[C@H](O)[C@H]1O[C@H]1O[C@H](CO)[C@@H](O)[C@H](N)[C@H]1O [Amikacin disulfate]
Mid

Bin this entry: CN(C)CCCN1c2ccccc2Sc2ccccc21 [Promazine hydrochloride]
Low

Bin this entry: C[C@@H](O)[C@H]1C(=O)N2C(C(=O)O)=C(S[C@@H]3CN[C@H](C(=O)Nc4cccc(C(=O)O)c4)C3)[C@H](C)[C@H]12 [Ertapenem sodium]
High

Bin this entry: CN(C)CCC[C@@]1(c2ccc(F)cc2)OCc2cc(C#N)ccc21 [Escitalopram Oxalate]
Low
